Molecular target: Cholinesterase (Equus caballus) (UniProt P81908)
Sequence (P81908 whole entry): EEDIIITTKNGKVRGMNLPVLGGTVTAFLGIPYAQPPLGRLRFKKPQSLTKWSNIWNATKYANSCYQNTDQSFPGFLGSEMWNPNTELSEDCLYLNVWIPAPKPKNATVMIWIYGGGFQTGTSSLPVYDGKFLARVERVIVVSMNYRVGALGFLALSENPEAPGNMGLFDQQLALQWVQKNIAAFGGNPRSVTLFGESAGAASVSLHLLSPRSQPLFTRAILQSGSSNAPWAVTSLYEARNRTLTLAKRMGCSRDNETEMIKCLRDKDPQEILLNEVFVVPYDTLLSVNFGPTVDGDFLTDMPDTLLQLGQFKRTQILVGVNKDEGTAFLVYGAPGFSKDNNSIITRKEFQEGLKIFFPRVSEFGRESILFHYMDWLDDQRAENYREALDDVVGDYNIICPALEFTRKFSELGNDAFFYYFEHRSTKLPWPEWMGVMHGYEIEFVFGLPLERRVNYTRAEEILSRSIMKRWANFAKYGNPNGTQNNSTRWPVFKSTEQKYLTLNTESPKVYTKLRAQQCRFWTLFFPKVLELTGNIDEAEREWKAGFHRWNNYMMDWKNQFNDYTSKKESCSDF
Settings: at 2 mg/mL
Description: Inhibition of horse BChE at 2 mg/ml by Ellman's method
Provide the recorded inhibition for the entries that follow.
A bare number is not enough; add the unit after it.

Record `O=c1c(-c2ccc(O)cc2)coc2cc(O)ccc12` ; system Cholinesterase (Equus caballus) (UniProt P81908); inhibition = 0.02%

Observed inhibition, Cholinesterase (Equus caballus) (UniProt P81908), `CC[C@H]1CC[C@@]2(C)CN(CC)[C@@H]3[C@@H]4[C@@H](O)[C@H]2[C@@]13[C@@H]1C[C@@H]2CC[C@@]4(O)[C@H]1C(=O)O2` : -3.58%

`CCCCCCCCCCCCC/C=C/[C@@H](O)[C@H](CO)NC(=O)CCCCC` tested on Cholinesterase (Equus caballus) (UniProt P81908) gave inhibition: 4.36%

Item `COc1cc2c(c3oc4cccc(O)c4c(=O)c13)[C@@H]1C=CO[C@@H]1O2` ; assay system Cholinesterase (Equus caballus) (UniProt P81908); inhibition reported as -2.65%

The molecule `O=C1Nc2ccccc2/C1=C1/Nc2ccccc2C1=O` , tested on Cholinesterase (Equus caballus) (UniProt P81908), showed inhibition of 13.7%

Tested system Cholinesterase (Equus caballus) (UniProt P81908); inhibition recorded for `COC(=O)C[C@](O)(CCC(C)(C)O)C(=O)O[C@@H]1C(OC)=C[C@]23CCCN2CCc2cc4c(cc2[C@H]13)OCO4` was 1.48%

Value (inhibition, Cholinesterase (Equus caballus) (UniProt P81908)) for record CCN1C[C@]2(COC)CC[C@H](O)[C@@]34C5C[C@@H]6[C@@H](OC)C[C@](O)(C(CC23)C14)C5[C@H]6OC(C)=O (stereo partly drawn) = -0.23%

Here `O=C(O)c1cc(N(Cc2ccccc2O)Cc2ccccc2O)ccc1O` was tested on Cholinesterase (Equus caballus) (UniProt P81908), and its inhibition came to 1.67%

Sample `CN1CCc2cc3c(cc2[C@H]1[C@@H]1OC(=O)c2c1ccc1c2OCO1)OCO3` , system: Cholinesterase (Equus caballus) (UniProt P81908). Its inhibition is 0.63%

// inhibition (Cholinesterase (Equus caballus) (UniProt P81908)) for `O=C(/C=C/c1ccc(O)c(O)c1)O[C@@H]1C[C@](O)(C(=O)O)C[C@@H](O)[C@H]1O` = 4.8%

Tested on Cholinesterase (Equus caballus) (UniProt P81908), the item `CC(C)(O)[C@@H]1[C@H]2OC(=O)[C@@H]1[C@]1(O)C[C@H]3O[C@]34C(=O)O[C@H]2[C@]14C` showed inhibition equal to 1.96%

Kindly note: Cholinesterase (Equus caballus) (UniProt P81908), `C/C=C(/C)C(=O)O[C@H]1CC[C@@]2(C)[C@@H]3CC[C@H]4[C@]5(O)C[C@H](O)[C@@]6(O)[C@@H](CN7C[C@@H](C)CC[C@H]7[C@@]6(C)O)[C@]5(O)C[C@@]42O[C@]13O` , inhibition value reported: 6.44%

Reading of inhibition for `O=c1c(-c2ccc(O)cc2)coc2cc(O)cc(O)c12` with Cholinesterase (Equus caballus) (UniProt P81908): 10.5%

// inhibition (Cholinesterase (Equus caballus) (UniProt P81908)) for `C=C(C)[C@@H]1[C@H]2OC(=O)[C@@H]1[C@]1(O)C[C@H]3O[C@]34C(=O)O[C@H]2[C@]14C` = -3.55%

Measured on Cholinesterase (Equus caballus) (UniProt P81908), `C[C@@]12CCc3occc3[C@H]1CC[C@]13CC(=O)[C@H](CC[C@H]12)C3` has a documented inhibition of -0.09%

With Cholinesterase (Equus caballus) (UniProt P81908) as the test system, `CC1=CC(=O)C2=C(C)C[C@H](O)[C@@H]3[C@H](OC(=O)[C@H]3C)[C@@H]12` showed inhibition of 2.68%

Form field, inhibition with Cholinesterase (Equus caballus) (UniProt P81908), item `C[C@@]12C(=O)OC(=O)[C@]1(C)[C@H]1CC[C@@H]2O1` : -2.13%

The molecule `COc1cc2c(c(OC)c1OC)-c1c(cc3c(c1OC)OCO3)C[C@H](C)[C@H](C)C2` , when measured on Cholinesterase (Equus caballus) (UniProt P81908), yielded inhibition of 12.7%
